# assay.method.text: in vitro
# Format: cell-based
# condition: human, HEK293 cells, CTG (CellTiter Glo) Relative to Media
Attribute: viability at 2.5 µM
measured.parameter: viability at 2.5 µM

INSERT INTO measurements (compound, observed_value) VALUES
  ('CC(=O)N1CCC[C@]12CC=CCCCC1(CCCC=CCCCOC(=O)N3CC[C@@](C(=O)N[C@@H](Cc4ccsc4)C(=O)N[C@@H](Cc4csc5ccccc45)C(=O)N[C@@H](CCC(N)=O)C(=O)N[C@H](C)C(N)=O)(C3)NC(=O)[C@H](CC(N)=O)NC(=O)[C@H](Cc3ccccc3)NC(=O)[C@H](C)NC(=O)[C@H](C)NC(=O)[C@H](CC(=O)O)NC(=O)[C@H](CC(=O)O)NC1=O)NC(=O)[C@H](CC(C)(C)C)NC(=O)[C@H](CC(=O)O)NC2=O (some centres unmarked)', '99%'),
  ('CC(=O)N1CCC[C@]12CC=CCCCC1(CCCC=CCCCOC(=O)N3CC[C@@](C(=O)N[C@@H](Cc4ccsc4)C(=O)N[C@@H](Cc4csc5ccccc45)C(=O)N[C@@H](CCC(N)=O)C(N)=O)(C3)NC(=O)[C@H](CC(N)=O)NC(=O)[C@H](CC(=O)O)NC(=O)[C@H](C)NC(=O)[C@H](C)NC(=O)[C@H](CC(=O)O)NC(=O)[C@H](CC(=O)O)NC1=O)NC(=O)[C@H](CC(C)(C)C)NC(=O)[C@H](Cc1ccccc1)NC2=O (some centres unmarked)', '103%');

====

Attribute: pIC50
# study.system: full-length beta-Catenin (Uniprot ID P35222) (Homo sapiens, UniProt P35222)
# Construct: 10 nM full-length beta-Catenin (Uniprot ID P35222)
# Sequence (P35222 whole entry): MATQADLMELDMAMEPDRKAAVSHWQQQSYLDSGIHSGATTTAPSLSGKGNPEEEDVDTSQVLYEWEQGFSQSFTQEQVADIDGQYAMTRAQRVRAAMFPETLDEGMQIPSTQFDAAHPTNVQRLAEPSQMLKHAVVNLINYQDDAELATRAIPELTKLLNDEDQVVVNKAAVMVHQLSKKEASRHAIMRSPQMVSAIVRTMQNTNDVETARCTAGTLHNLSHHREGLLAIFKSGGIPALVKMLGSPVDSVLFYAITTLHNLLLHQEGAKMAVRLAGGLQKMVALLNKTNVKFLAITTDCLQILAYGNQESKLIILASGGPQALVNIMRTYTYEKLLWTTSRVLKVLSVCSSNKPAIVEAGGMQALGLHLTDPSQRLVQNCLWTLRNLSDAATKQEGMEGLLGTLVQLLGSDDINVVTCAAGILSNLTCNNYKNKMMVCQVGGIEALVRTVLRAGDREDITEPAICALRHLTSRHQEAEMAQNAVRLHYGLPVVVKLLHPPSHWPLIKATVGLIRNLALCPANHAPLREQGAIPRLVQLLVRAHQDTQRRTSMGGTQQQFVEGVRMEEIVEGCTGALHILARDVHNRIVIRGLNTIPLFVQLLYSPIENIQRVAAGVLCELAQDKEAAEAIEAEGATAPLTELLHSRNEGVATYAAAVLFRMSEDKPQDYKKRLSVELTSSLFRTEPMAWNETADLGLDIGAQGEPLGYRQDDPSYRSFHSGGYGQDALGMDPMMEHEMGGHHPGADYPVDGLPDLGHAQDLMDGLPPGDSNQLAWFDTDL
# assay.method.text: Fluorescence polarization IC50 (beta-catenin / 5FAM-TCF4 10-53 competition)
# Assay type: binding
# condition: fluorescence polarization; read-out: beta-Catenin FP IC50
pIC50: −log10 of the molar value.
measured.parameter: pIC50

INSERT INTO measurements (compound, observed_value) VALUES
  ('CC(=O)N1CCC[C@]12CC=CCCCC1(CCCC=CCCCOC(=O)N3CC[C@@](C(=O)N[C@@H](Cc4ccsc4)C(=O)N[C@@H](Cc4csc5ccccc45)C(=O)N[C@@H](CCC(N)=O)C(N)=O)(C3)NC(=O)[C@H](CC(C)C)NC(=O)[C@H](Cc3ccccc3)NC(=O)[C@H](C)NC(=O)[C@H](C)NC(=O)[C@H](Cn3cc(C(C)(C)C(=O)O)nn3)NC(=O)[C@H](CC(=O)O)NC1=O)NC(=O)[C@H](CC(C)(C)C)NC(=O)[C@H](CC(=O)O)NC2=O (some centres unmarked)', 8.30),
  ('CC(=O)N1CCC[C@]12CC=CCCCC1(CCCC=CCCCOC(=O)N3CC[C@@](C(=O)N[C@@H](Cc4ccccc4Cl)C(=O)N[C@@H](Cc4csc5ccccc45)C(=O)N[C@@H](C)C(N)=O)(C3)NC(=O)[C@H](CC(C)C)NC(=O)[C@H](Cc3ccccc3)NC(=O)[C@H](C)NC(=O)[C@H](C)NC(=O)[C@H](Cc3cccc(C(=O)O)c3)NC(=O)[C@H](CC(=O)O)NC1=O)NC(=O)[C@H](CC(C)(C)C)NC(=O)[C@H](CC(=O)O)NC2=O (some centres unmarked)', 7.60);

====

# assay.method.text: Solubility in PBS
# Format: physicochemical
measured.parameter: Solubility (µM)

INSERT INTO results (molecule, observed_value) VALUES
  ('CC(=O)N1CCC[C@]12CC=CCCCC1(CCCC=CCCCCCC[C@@](C)(C(=O)N[C@@H](Cc3ccccc3)C(=O)N[C@@H](Cc3csc4ccccc34)C(=O)N[C@@H](CCC(N)=O)C(N)=O)NC(=O)[C@H](CC(N)=O)NC(=O)[C@H](Cc3ccccc3)NC(=O)[C@H](C)NC(=O)[C@H](C)NC(=O)[C@H](CCC(=O)O)NC(=O)[C@H](CC(=O)O)NC1=O)NC(=O)[C@H](CC1CCCCC1)NC(=O)[C@H](CC(=O)O)NC2=O (stereo partly drawn) [I-619]', 47),
  ('CC(=O)N1CCC[C@]12CC=CCCCC1(CCCC=CCCCCCC[C@@](C)(C(=O)N[C@@H](Cc3ccccc3)C(=O)N[C@@H](Cc3c[nH]c4ccccc34)C(=O)N[C@@H](CCC(N)=O)C(N)=O)NC(=O)[C@H](C(C)C)NC(=O)[C@H](Cc3ccco3)NC(=O)[C@H](C)NC(=O)[C@H](C)NC(=O)[C@H](CC(=O)O)NC(=O)[C@H](CC(=O)O)NC1=O)NC(=O)[C@H](C)NC(=O)[C@H](CC(=O)O)NC2=O (stereo partly drawn) [I-328]', 44),
  ('CCN(CC(=O)O)C[C@@H]1NC(=O)[C@H](CC(=O)O)NC(=O)C2(CCCC=CCCCOC(=O)N3CC[C@@](C(=O)N[C@@H](Cc4ccsc4)C(=O)N[C@@H](Cc4csc5ccccc45)C(=O)N[C@@H](CCC(N)=O)C(N)=O)(C3)NC(=O)[C@H]([C@@H](C)O)NC(=O)[C@H](Cc3ccccc3)NC(=O)[C@H](C)NC(=O)[C@H](C)NC1=O)CCCC=CC[C@]1(CCCN1C(C)=O)C(=O)N[C@@H](CC(=O)O)C(=O)N[C@@H](CC(C)(C)C)C(=O)N2 (stereo partly drawn) [I-969]', 46);

====

# study.system: full-length beta-Catenin (Uniprot ID P35222) (Homo sapiens, UniProt P35222)
# Construct: 10 nM full-length beta-Catenin (Uniprot ID P35222)
# assay.method.text: Fluorescence polarization IC50 (beta-catenin / 5FAM-TCF4 10-53 competition)
# Assay type: binding
# condition: read-out: FP EC50
pIC50: −log10 of the molar value.
Attribute: pIC50
measured.parameter: pIC50

INSERT INTO measurements (compound, observed_value) VALUES
  ('CC(=O)N1CCC[C@]12CC=CCCCC1(CCCC=CCOC(=O)N(C)CCC[C@@](C)(C(=O)N[C@@H](Cc3ccsc3)C(=O)N[C@@H](Cc3csc4ccccc34)C(=O)N[C@@H](Cc3c[nH]cn3)C(N)=O)NC(=O)[C@H](CC(N)=O)NC(=O)[C@H](Cc3ccccc3)NC(=O)[C@H](C)NC(=O)[C@H](C)NC(=O)[C@H](CC(=O)O)NC(=O)[C@H](CC(=O)O)NC1=O)NC(=O)[C@H](CC(C)(C)C)NC(=O)[C@H](CC(=O)O)NC2=O (stereo partly shown) [I-773]', 6.78),
  ('CC(=O)N1CCC[C@]12CC=CCCCC1(CCCC=CCCCCCC[C@@](C)(C(=O)N[C@@H](Cc3ccsc3)C(=O)N[C@@H](Cc3csc4ccccc34)C(=O)N[C@@H](Cc3c[nH]cn3)C(N)=O)NC(=O)[C@H](CC(N)=O)NC(=O)[C@H](Cc3ccccc3)NC(=O)[C@H](C)NC(=O)[C@H](C)NC(=O)[C@H](CCC(=O)O)NC(=O)[C@H](CC(=O)O)NC1=O)NC(=O)[C@H](C)NC(=O)[C@H](CC(=O)O)NC2=O (stereo partly shown) [I-516]', 7.64),
  ('CC[C@@H]1NC(=O)[C@H](CC(=O)O)NC(=O)[C@]2(CC=CCCCC3(CCCC=CCCCCCC[C@@](C)(C(=O)N[C@@H](Cc4ccccc4)C(=O)N[C@@H](Cc4csc5ccccc45)C(=O)N[C@@H](Cc4c[nH]cn4)C(N)=O)NC(=O)[C@H](CC(N)=O)NC(=O)[C@H](Cc4ccccc4)NC(=O)[C@H](C)NC(=O)[C@H](C)NC(=O)[C@H](CC(=O)O)NC(=O)[C@H](CC(=O)O)NC3=O)NC1=O)CCCN2C(C)=O (stereo partly shown) [I-575]', 7.68),
  ('CC(=O)N1CCC[C@]12CC=CCCCC1(CCCC=CCCCCCC[C@@](C)(C(=O)N[C@@H](Cc3ccccc3)C(=O)N[C@@H](Cc3csc4ccccc34)C(=O)N[C@H](Cc3c[nH]cn3)C(N)=O)NC(=O)[C@H](CC(N)=O)NC(=O)[C@H](Cc3ccccc3)NC(=O)[C@H](C)NC(=O)[C@H](C)NC(=O)[C@H](CCC(=O)O)NC(=O)[C@H](CC(=O)O)NC1=O)NC(=O)[C@H](CC(C)C)NC(=O)[C@H](CC(=O)O)NC2=O (stereo partly shown) [I-744]', 6.95),
  ('CC[C@H](C)[C@@H]1NC(=O)[C@H](CC(=O)O)NC(=O)[C@]2(CC=CCCCC3(CCCC=CCCCCCC[C@@](C)(C(=O)N[C@@H](Cc4ccccc4)C(=O)N[C@@H](Cc4csc5ccccc45)C(=O)N[C@@H](CCC(N)=O)C(N)=O)NC(=O)[C@H](CCC(N)=O)NC(=O)[C@H](Cc4ccccc4)NC(=O)[C@H](C)NC(=O)[C@H](C)NC(=O)[C@H](CCCNC(=N)N)NC(=O)[C@H](CC(=O)O)NC3=O)NC1=O)CCCN2C(C)=O (stereo partly shown) [I-613]', 5.79),
  ('CC(=O)N1CCC[C@]12CC=CCCCC1(CCCC=CCCCCOC(=O)N3CC[C@@](C(=O)N[C@@H](Cc4ccsc4)C(=O)N[C@@H](Cc4csc5ccccc45)C(=O)N[C@@H](Cc4c[nH]cn4)C(N)=O)(C3)NC(=O)[C@H](CC(N)=O)NC(=O)[C@H](Cc3ccccc3)NC(=O)[C@H](C)NC(=O)[C@H](C)NC(=O)[C@H](CC(=O)O)NC(=O)[C@H](CC(=O)O)NC1=O)NC(=O)[C@H](CC(C)(C)C)NC(=O)[C@H](CC(=O)O)NC2=O (stereo partly shown)', 8.15),
  ('CC[C@H](C)[C@H](NC(=O)[C@H](CCC(N)=O)NC(=O)[C@H](Cc1csc2ccccc12)NC(=O)[C@H](Cc1ccccc1)NC(=O)[C@]1(C)CCCCCCC=CCCCC2(CCCC=CC[C@]3(CCCN3C(C)=O)C(=O)N[C@@H](CC(=O)O)C(=O)N[C@@H](CC(C)C)C(=O)N2)C(=O)N[C@@H](CC(=O)O)C(=O)N[C@@H](CCC(=O)O)C(=O)N[C@@H](C)C(=O)N[C@@H](C)C(=O)N[C@@H](Cc2ccccc2)C(=O)N[C@@H](CC(N)=O)C(=O)N1)C(N)=O (stereo partly shown) [I-732]', 5.37),
  ('CO[C@H](C)[C@@H]1NC(=O)[C@H](CC(=O)O)NC(=O)[C@]2(CC=CCCCC3(CCCC=CCCCCCC[C@@](C)(C(=O)N[C@@H](Cc4ccccc4)C(=O)N[C@@H](Cc4csc5ccccc45)C(=O)N[C@@H](CCC(N)=O)C(N)=O)NC(=O)[C@H](CCC(N)=O)NC(=O)[C@H](Cc4ccccc4)NC(=O)[C@H](C)NC(=O)[C@H](C)NC(=O)[C@H](CCC(=O)O)NC(=O)[C@H](CC(=O)O)NC3=O)NC1=O)CCCN2C(C)=O (stereo partly shown) [I-542]', 6.96),
  ('CC(=O)N1CCC[C@]12CC=CCCCC1(CCCC=CCCCCCC[C@@](C)(C(=O)N[C@@H](Cc3ccccc3)C(=O)N[C@@H](Cc3csc4ccccc34)C(=O)N[C@H](C(N)=O)[C@@H](C)O)NC(=O)[C@H](CCC(N)=O)NC(=O)[C@H](Cc3ccccc3)NC(=O)[C@H](C)NC(=O)[C@H](C)NC(=O)[C@H](CCC(=O)O)NC(=O)[C@H](CC(=O)O)NC1=O)NC(=O)[C@H](C)NC(=O)[C@H](CC(=O)O)NC2=O (stereo partly shown) [I-508]', 7.14),
  ('CC(=O)N1CCC[C@]12CC=CCCCC1(CCCC=CCCCCCC[C@@](C)(C(=O)N[C@@H](Cc3ccccc3)C(=O)N[C@@H](Cc3csc4ccccc34)C(=O)N[C@H](C(N)=O)[C@@H](C)O)NC(=O)[C@H](CC(N)=O)NC(=O)[C@H](Cc3ccccc3)NC(=O)[C@H](C)NC(=O)[C@H](C)NC(=O)[C@H](CCC(=O)O)NC(=O)[C@H](CC(=O)O)NC1=O)NC(=O)[C@H](CC(C)C)NC(=O)[C@H](CC(=O)O)NC2=O (stereo partly shown) [I-749]', 7.40);
